Data credit: ChEMBL document CHEMBL2417464

- System: A549
- TEST_PROTOCOL: Cytotoxicity against human A549 cells after 72 hrs by MTT assay
- Assay type: functional, cell-based
- TEST_PARAMETERS: A549, 72 h
pIC50: −log10 of the molar value.
// pIC50 lookup, one value per entry
REPORTED_METRIC: pIC50

• COc1cc2ncnc(Nc3ccc(N(CCCl)CCCl)cc3)c2cc1OC = < 4.00
• COc1cc2ncnc(Nc3cccc(N(CCCl)CCCl)c3)c2cc1OC = < 4.00
• COCCOc1cc2ncnc(Nc3ccc(N(CCCl)CCCl)cc3)c2cc1OCCOC = < 4.00
